# ASSAY_METHOD_TEXT: in vitro
# Parameters: Viability of infected HeLa host cells, resazurin conversion, bulk resorufin fluorescence relative to DMSO
# CONDITION_LABEL: human, hela cells; bulk resorufin, mean of 3
OBSERVED_PROPERTY: viability at 28.5 h, 0.00125 µM (%)
All answers are understood in %, so give the number only.

# molecule O=C(N/N=C/c1ccc(Sc2cccc3cccnc23)o1)c1cccc(F)c1 [c10e] ; its viability at 28.5 h, 0.00125 µM = 93.8

# molecule CCCN(CCC)CCc1cccc2c1CCN2C(=O)c1cc2ccccc2s1 [c15e] ; its viability at 28.5 h, 0.00125 µM = 89.2

# molecule CCCCc1ccc(NC(=N)Nc2nc(C)cc(C)n2)cc1 [c33e] ; its viability at 28.5 h, 0.00125 µM = 88
